tested on: TK-10 renal; assay: NCI-60 one-dose screen, 48 h (100 = growth as untreated, 0 = no growth, -100 = all killed); details: 10 µM unless noted
About 83,000 compounds went through this panel and 20% of them were active in at least one assay; those are over-represented in the sample as a whole.
measurement-kind: growth (%)
Response body: numeric value in %, unit text excluded.

Task: Please list growth recorded for the molecule CCCCC/C=C/C(C)=C/C1CC(C)C/C=C/CCC(O)C(OC(N)=O)CCC(C)CC(O)C(C)C(=O)O1 (stereo not given)
Output: 100

Task: Please list growth recorded for the molecule CCCNC(=O)Oc1ccc(/C(=C(\C)c2ccccc2)c2ccc(OCCCN(C)C)cc2)cc1
Output: 84.8

Task: Please list growth recorded for the molecule COc1cc(F)c(/C=C/c2cc(/C=C/c3cc(OC)c(OC)cc3F)on2)cc1OC
Output: 100

Task: Please list growth recorded for the molecule COc1cccc(C(=O)NNc2nc(Cl)nc(N3CCN(C(c4ccccc4)c4ccccc4)CC3)n2)c1
Output: 97.8

Task: Please list growth recorded for the molecule Oc1ccc(C2c3ccccc3Oc3ccccc32)c2cccnc12
Output: 39.1

From: PubChem BioAssay (NCI)
